The reported numbers originate from paper PMC5234788.

target: human D2 dopamine receptor (Homo sapiens); experiment: biochemical
Sequence (P14416 whole entry): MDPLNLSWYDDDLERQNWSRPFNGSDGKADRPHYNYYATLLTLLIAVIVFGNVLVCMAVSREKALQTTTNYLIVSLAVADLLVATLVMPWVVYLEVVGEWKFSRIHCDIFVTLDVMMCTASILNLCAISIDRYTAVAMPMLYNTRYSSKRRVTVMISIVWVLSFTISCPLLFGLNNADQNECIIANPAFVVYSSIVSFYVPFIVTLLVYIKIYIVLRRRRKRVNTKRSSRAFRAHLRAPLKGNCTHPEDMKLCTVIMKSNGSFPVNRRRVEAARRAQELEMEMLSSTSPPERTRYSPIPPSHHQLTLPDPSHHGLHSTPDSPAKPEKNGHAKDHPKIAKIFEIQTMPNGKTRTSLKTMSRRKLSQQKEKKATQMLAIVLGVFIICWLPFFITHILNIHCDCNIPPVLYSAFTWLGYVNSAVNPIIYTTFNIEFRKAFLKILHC
READOUT_KIND: IC50 (nM)

COc1ccc2c(c1O)CN1CCc3cc4c(cc3[C@@H]1C2)OCO4 [l-THBr, levo-tetrahydroberberrubine]	5.26

====

target: 5-HT1A receptors in rat hippocampus (Rattus norvegicus); construct: rat hippocampal tissues highly expressing 5-HT1A receptors were prepared as previously described; assay: [35S]GTPγS assay for 5-HT1A receptor activity in rat hippocampus; conditions: rat hippocampus membranes; read-out: EC50, increase in [35S]GTPγS binding
Sequence (P19327 whole entry): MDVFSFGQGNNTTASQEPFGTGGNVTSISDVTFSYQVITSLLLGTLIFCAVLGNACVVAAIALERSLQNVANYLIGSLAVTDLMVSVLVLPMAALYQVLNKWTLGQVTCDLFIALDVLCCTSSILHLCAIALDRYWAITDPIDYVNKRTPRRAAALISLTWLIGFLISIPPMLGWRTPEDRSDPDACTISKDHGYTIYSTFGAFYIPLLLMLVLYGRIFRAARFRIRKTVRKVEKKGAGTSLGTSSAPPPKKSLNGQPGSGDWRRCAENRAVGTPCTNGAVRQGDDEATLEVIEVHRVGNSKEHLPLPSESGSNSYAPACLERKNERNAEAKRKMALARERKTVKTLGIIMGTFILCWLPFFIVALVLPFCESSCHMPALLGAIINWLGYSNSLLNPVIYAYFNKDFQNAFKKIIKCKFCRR
READOUT_KIND: EC50 (nM)

COc1ccc2c(c1O)CN1CCc3cc4c(cc3[C@@H]1C2)OCO4 [l-THBr, levo-tetrahydroberberrubine]	235

====

biological target: D1 receptor (Homo sapiens, UniProt P21728); experiment: cAMP assay for D1 receptor activity in CHO cells
Sequence (P21728 whole entry): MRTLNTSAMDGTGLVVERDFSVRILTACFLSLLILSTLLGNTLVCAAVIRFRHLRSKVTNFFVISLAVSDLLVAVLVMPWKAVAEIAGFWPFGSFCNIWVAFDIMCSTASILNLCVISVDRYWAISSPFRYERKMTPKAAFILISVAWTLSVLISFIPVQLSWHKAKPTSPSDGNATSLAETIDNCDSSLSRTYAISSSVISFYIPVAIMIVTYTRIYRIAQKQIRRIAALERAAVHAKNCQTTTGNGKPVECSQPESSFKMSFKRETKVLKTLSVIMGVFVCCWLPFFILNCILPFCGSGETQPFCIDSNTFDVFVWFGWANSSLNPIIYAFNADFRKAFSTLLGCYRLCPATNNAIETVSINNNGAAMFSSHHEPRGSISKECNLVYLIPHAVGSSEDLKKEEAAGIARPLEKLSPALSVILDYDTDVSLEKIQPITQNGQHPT
pIC50: −log10 of the molar value.
READOUT_KIND: pIC50

COc1ccc2c(c1O)CN1CCc3cc4c(cc3[C@@H]1C2)OCO4 [l-THBr, levo-tetrahydroberberrubine]	6.44
